Biological target: Nociceptin receptor (Homo sapiens, UniProt P41146)
Sequence (P41146 whole entry): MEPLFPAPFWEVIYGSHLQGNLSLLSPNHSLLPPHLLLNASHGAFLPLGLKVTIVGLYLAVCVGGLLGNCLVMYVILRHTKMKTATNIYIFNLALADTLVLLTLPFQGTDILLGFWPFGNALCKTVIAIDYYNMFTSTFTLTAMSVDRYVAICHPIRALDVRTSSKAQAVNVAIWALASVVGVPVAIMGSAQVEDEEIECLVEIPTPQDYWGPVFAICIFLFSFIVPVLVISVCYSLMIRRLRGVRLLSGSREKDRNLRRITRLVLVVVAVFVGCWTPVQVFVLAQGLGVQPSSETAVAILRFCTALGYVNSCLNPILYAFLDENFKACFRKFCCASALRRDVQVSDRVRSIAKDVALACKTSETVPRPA
Experiment: Functional [35S]GTP-gamma-S, binding for human ORL1 receptor carried out in CHO cell membranes.
Format: cell-based
Details: filed as agonist
metric: Activity

[[record]]
chemical_string = "N[C@H](c1cccc(Cl)c1)[C@@H]1CCN1C(c1cccc(Cl)c1)c1cccc(Cl)c1"
measurement_target = "Nociceptin receptor (Homo sapiens, UniProt P41146)"
result = "Agonist"

[[record]]
chemical_string = "Cc1ccc([C@H](N)[C@@H]2CCN2C(c2ccccc2)c2ccccc2)cc1F"
measurement_target = "Nociceptin receptor (Homo sapiens, UniProt P41146)"
result = "Agonist"

[[record]]
chemical_string = "N[C@@H](c1cc(F)cc(F)c1)[C@@H]1CCN1C(c1ccccc1)c1ccccc1"
measurement_target = "Nociceptin receptor (Homo sapiens, UniProt P41146)"
result = "Agonist"

[[record]]
chemical_string = "N[C@H](c1cccc(Cl)c1)[C@@H]1CCN1C(c1cccc(F)c1)c1cccc(F)c1"
measurement_target = "Nociceptin receptor (Homo sapiens, UniProt P41146)"
result = "Agonist"


* * *

Molecular target: Delta-type opioid receptor (Homo sapiens, UniProt P41143)
Sequence (P41143 whole entry): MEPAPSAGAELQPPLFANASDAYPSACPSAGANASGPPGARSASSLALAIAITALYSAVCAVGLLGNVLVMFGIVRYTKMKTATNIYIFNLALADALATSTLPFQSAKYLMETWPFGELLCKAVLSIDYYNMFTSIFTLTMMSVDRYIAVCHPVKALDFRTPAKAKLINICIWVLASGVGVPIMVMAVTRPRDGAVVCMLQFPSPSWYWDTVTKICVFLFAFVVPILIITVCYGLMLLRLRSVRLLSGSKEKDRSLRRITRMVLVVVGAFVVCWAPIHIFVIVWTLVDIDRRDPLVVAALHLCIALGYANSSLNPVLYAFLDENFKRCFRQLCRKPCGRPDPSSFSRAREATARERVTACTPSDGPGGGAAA
Experiment: Binding affinity at human opioid receptor delta 1 was determined by using [3H]diprenorphine radioligand in CHO cell membranes at a concentration of 0.8 nM
Rule for this label: true (1) means Ki is less than 7 µM; false (0) means Ki is at least 7 µM.

I wonder whether N[C@@H](c1cccc(Cl)c1)[C@@H]1CCN1C(c1ccccc1)c1ccccc1 has Ki below 7 µM. Can you tell?
false (0)

Thanks! And CCCCCCC(c1ccccc1)N1CC[C@H]1[C@@H](N)c1cccc(Cl)c1 (some centres undefined) ?
true (1)

Repeat for the following compound: CCCCC(c1ccccc1)N1CC[C@H]1[C@H](N)c1cccc(Cl)c1 (some centres undefined)
false (0)

Follow-up entry: N[C@H](c1cccc(Cl)c1)[C@@H]1CCN1C(c1ccc(F)cc1)c1ccc(F)cc1
false (0)

Can you handle CCCCC(c1cc(F)cc(F)c1)N1CC[C@H]1[C@@H](N)c1cccc(Cl)c1 (some centres undefined) next?
false (0)

Now try N[C@H](c1cccc(Cl)c1)[C@@H]1CCN1C(c1ccc(Br)cc1)c1ccc(Br)cc1 .
true (1)

Next entry: CCCCCC(c1ccccc1)N1CC[C@H]1[C@H](N)c1cccc(Cl)c1 (some centres undefined)
true (1)

Okay, and N[C@H](c1cccc(Cl)c1)[C@@H]1CCN1C(c1cccc(F)c1)c1cccc(F)c1 ?
true (1)

// same read-out, input: Cc1ccc(C(c2ccc(C)cc2)N2CC[C@H]2[C@H](N)c2cccc(Cl)c2)cc1
true (1)

* * *

Biological target: Mu-type opioid receptor (Homo sapiens)
Sequence (P35372 whole entry): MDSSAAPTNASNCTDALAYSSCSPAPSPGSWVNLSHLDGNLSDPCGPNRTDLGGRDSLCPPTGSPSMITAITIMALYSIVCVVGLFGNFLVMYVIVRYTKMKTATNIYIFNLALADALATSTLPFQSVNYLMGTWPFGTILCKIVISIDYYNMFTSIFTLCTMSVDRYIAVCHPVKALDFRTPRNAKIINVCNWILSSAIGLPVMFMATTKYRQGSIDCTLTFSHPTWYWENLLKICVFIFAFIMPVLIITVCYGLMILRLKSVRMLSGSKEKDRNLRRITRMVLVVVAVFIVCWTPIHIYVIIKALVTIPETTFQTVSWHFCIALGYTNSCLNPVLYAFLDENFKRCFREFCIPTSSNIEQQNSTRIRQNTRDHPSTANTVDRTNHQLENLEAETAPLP
pKi: −log10 of the molar value.
// not met strictly below 6 in pKi; met otherwise

Is reported pKi greater than or equal to 6 here: N[C@@H](c1ccc(Cl)cc1)[C@@H]1CCN1C(c1ccccc1)c1ccccc1
met

And what about the compound CCCCCC(c1ccccc1)N1CC[C@H]1[C@@H](N)c1cccc(Cl)c1 (stereo partly specified) ?
not met

Same lookup for CC(c1ccccc1)N1CC[C@H]1[C@@H](N)c1cccc(Cl)c1 (stereo partly specified) , please.
not met

Query CCCCC(c1cccc(F)c1)N1CC[C@H]1[C@H](N)c1cccc(Cl)c1 (stereo partly specified) next
not met

Try N[C@@H](c1cc(F)cc(F)c1)[C@@H]1CCN1C(c1ccccc1)c1ccccc1 next.
not met

Do the same for N[C@H](c1cccc(Cl)c1)[C@@H]1CCN1C(c1ccc(Br)cc1)c1ccc(Br)cc1 please
not met

And N[C@@H](c1cccc(Cl)c1)[C@@H]1CCN1C(c1ccccc1)c1ccccc1 ?
not met

Repeat with CCC(c1ccccc1)N1CC[C@H]1[C@H](N)c1cccc(Cl)c1 (stereo partly specified)
not met

Now the compound CCCC(c1ccccc1)N1CC[C@H]1[C@@H](N)c1cccc(Cl)c1 (stereo partly specified)
not met

Here is the next compound: Cc1ccc([C@H](N)[C@@H]2CCN2C(c2ccccc2)c2ccccc2)cc1F
met

Repeat for the following compound: N[C@H](c1cccc(Cl)c1)[C@@H]1CCN1C(c1cccc(Cl)c1)c1cccc(Cl)c1
not met

Next compound: N[C@H](c1cccc(Cl)c1)[C@@H]1CCN1C(c1ccc(Cl)cc1)c1ccc(Cl)cc1
not met

Again, but for CCCCC(c1cc(F)cc(F)c1)N1CC[C@H]1[C@H](N)c1cccc(Cl)c1 (stereo partly specified)
not met

* * *

Please consider the recorded pKi for Mu-type opioid receptor (Homo sapiens, UniProt P35372) in what follows.
Scale: pKi equals -log10([C]), with [C] in mol/L.

Give its pKi value. Item: COc1ccc([C@H](N)[C@@H]2CCN2C(c2ccccc2)c2ccccc2)cc1
6.06

Now try Cc1ccc(C(c2ccc(C)cc2)N2CC[C@H]2[C@H](N)c2cccc(Cl)c2)cc1 .
6.10

And CCCCCCC(c1ccccc1)N1CC[C@H]1[C@H](N)c1cccc(Cl)c1 (stereo partly drawn) ?
5.83
